Please respond with reported inhibition at 0.01 µM for every item in the list.
Target or test system: Cloned Human Serotonin Receptor, Subtype 7 (h5HT7) (Homo sapiens)
Construct: purchased PerkinElmer 6120512; host or cells: CHO cells
Sequence (P34969 whole entry): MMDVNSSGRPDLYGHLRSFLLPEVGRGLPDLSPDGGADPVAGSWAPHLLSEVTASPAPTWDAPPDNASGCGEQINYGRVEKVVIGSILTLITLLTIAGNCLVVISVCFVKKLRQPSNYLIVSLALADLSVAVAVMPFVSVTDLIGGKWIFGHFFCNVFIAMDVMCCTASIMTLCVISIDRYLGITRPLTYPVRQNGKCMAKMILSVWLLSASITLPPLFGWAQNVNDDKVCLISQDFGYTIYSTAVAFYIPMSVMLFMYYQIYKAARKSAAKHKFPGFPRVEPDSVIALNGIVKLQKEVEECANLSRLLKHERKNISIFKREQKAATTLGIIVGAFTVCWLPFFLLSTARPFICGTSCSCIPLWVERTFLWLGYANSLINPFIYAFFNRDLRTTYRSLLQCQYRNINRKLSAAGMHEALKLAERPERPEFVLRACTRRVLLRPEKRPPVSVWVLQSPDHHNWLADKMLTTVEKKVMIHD
Assay notes: Radioligand binding 5HT7
Assay conditions: read-out: 5-HT7 %-Inhib. (10^−8 M)
Structures can show the parent of a compound that is named as a salt.
State just the number; it will be interpreted in %.

Given Cc1nn(C)c(C)c1-c1cccc2c1CC[C@H](N(C)Cc1ccccc1)C2 [Chemical Example F] , state its recorded inhibition at 0.01 µM.
16.3

Given Cc1nn(C)c(C)c1-c1cccc2c1CC[C@@H](N(C)C)C2 [Chemical Example J, hydrochloride] , state its recorded inhibition at 0.01 µM.
-1.8

Given CN[C@H]1CCc2c(cccc2-c2c(C)nn(C)c2C)C1 [Chemical Example H, hydrochloride] , state its recorded inhibition at 0.01 µM.
86.1

Given Cc1nn(C)c(C)c1-c1cccc2c1CCC(N(C)C)C2 (stereo not shown) [Chemical Example K] , state its recorded inhibition at 0.01 µM.
38.8
